System: platelet aggregation induced by STA2 in human blood
Test: Inhibitory activity of platelet aggregation induced by STA2 in human blood
Type: cell-based
Settings: Homo sapiens, Platelet, method of Born, read-out: concentrations required 50% inhibition on platelet aggregation (IC50)
Metric Name: IC50 (nM)
Give bare numbers, in nM.

Example entries begin here.
[
  {
    "Compound": "CC1(C)[C@H]2C[C@H](NC(=O)C3CCCC3)[C@@H](C/C=C\\CCCC(=O)O)[C@@H]1C2",
    "Value Unit": "nM",
    "IC50": 560
  },
  {
    "Compound": "CCCCCC(O)C(=O)N[C@H]1C[C@H]2C[C@@H]([C@@H]1C/C=C\\CCCC(=O)O)C2(C)C (some centres unmarked)",
    "Value Unit": "nM",
    "IC50": 320
  },
  {
    "Compound": "CC1(C)[C@H]2C[C@H](NC(=O)CCSc3ccccc3)[C@@H](C/C=C\\CCCC(=O)O)[C@@H]1C2",
    "Value Unit": "nM",
    "IC50": 290
  },
  {
    "Compound": "CC1(C)[C@H]2C[C@H](NC(=O)CC3CCCC3)[C@@H](C/C=C\\CCCC(=O)O)[C@@H]1C2",
    "Value Unit": "nM",
    "IC50": 420
  }
]

Batch lookup, IC50 per entry.
1. CC(C)CCC(=O)N[C@H]1C[C@H]2C[C@@H]([C@@H]1C/C=C\CCCC(=O)O)C2(C)C
2. CCC(C)CC(=O)N[C@H]1C[C@H]2C[C@@H]([C@@H]1C/C=C\CCCC(=O)O)C2(C)C (some centres unmarked)

OUTPUT:
[300, 550]

Batch lookup, IC50 per entry.
1. CC1(C)[C@H]2C[C@H](NC(=O)CCCc3ccccc3)[C@@H](C/C=C\CCCC(=O)O)[C@@H]1C2
2. CC1(C)[C@H]2C[C@H](NC(=O)C(Cl)C3CCCC3)[C@@H](C/C=C\CCCC(=O)O)[C@@H]1C2 (some centres unmarked)
3. CC1(C)[C@H]2C[C@H](NC(=O)CC3Cc4ccccc4C3)[C@@H](C/C=C\CCCC(=O)O)[C@@H]1C2
4. CC(C)C(O)C(=O)N[C@H]1C[C@H]2C[C@@H]([C@@H]1C/C=C\CCCC(=O)O)C2(C)C (single isomer, unassigned)
5. CCCCC(=O)N[C@H]1C[C@H]2C[C@@H]([C@@H]1C/C=C\CCCC(=O)O)C2(C)C
6. CCCCCC(=O)N[C@H]1C[C@H]2C[C@@H]([C@@H]1C/C=C\CCCC(=O)O)C2(C)C

OUTPUT:
430
450
710
300
560
670

Batch lookup, IC50 per entry.
1. CC1(C)[C@H]2C[C@H](NC(=O)CCCc3cccc(Cl)c3)[C@@H](C/C=C\CCCC(=O)O)[C@@H]1C2 [1(r)]
2. CC(CC(=O)N[C@H]1C[C@H]2C[C@@H]([C@@H]1C/C=C\CCCC(=O)O)C2(C)C)Cc1ccccc1 (some centres unmarked)
3. CC1(C)[C@H]2C[C@H](NC(=O)CCCCc3ccccc3)[C@@H](C/C=C\CCCC(=O)O)[C@@H]1C2
4. CC1(C)[C@H]2C[C@H](NC(=O)C(O)CCc3ccccc3)[C@@H](C/C=C\CCCC(=O)O)[C@@H]1C2 (some centres unmarked)
5. CC(C)CC(=O)N[C@H]1C[C@H]2C[C@@H]([C@@H]1C/C=C\CCCC(=O)O)C2(C)C [1(ee)]

OUTPUT:
1. 670
2. 190
3. 630
4. 280
5. 380
